Tested on: broad panel of different clinical isolates
test_summary: microbe, parasite or virus in culture
Assay type: cell-based
condition_description: Staphylococcus epidermidis, S. epidermidis HAV#277; Line R
Description: Minimum inhibitory concentrations (MICs) were determined by broth microdilution method or agar dilution method following the Clinical and Laboratory Standards Institute guidelines. Standard bacterial strains were obtained from American Type Culture Collection (ATCC). Other bacterial strains were obtained from hospitals and commercial sources, so noted in Table 11. […] Specialized procedures were employed for streptococcal and anaerobic strains. […]
measured_endpoint: MIC

compound	measured_endpoint	test_value
CC[C@H]1OC(=O)[C@H](C)[C@@H](O[C@H]2C[C@@](C)(OC)[C@@H](O)[C@H](C)O2)[C@H](C)[C@@H](O[C@@H]2O[C@H](C)C[C@H](N(C)C)[C@H]2O)[C@](C)(O)C[C@@H](C)CN(C)[C@H](C)[C@@H](O)[C@]1(C)O	MIC	> 64 µg/mL
CC(=O)NC[C@H]1CN(c2ccc(N3CCOCC3)c(F)c2)C(=O)O1	MIC	> 128 µg/mL
CN[C@H](CC(C)C)C(=O)N[C@H]1C(=O)N[C@@H](CC(N)=O)C(=O)N[C@H]2C(=O)N[C@H]3C(=O)N[C@H](C(=O)N[C@H](C(=O)O)c4cc(O)cc(O)c4-c4cc3ccc4O)[C@H](O)c3ccc(c(Cl)c3)Oc3cc2cc(c3O[C@@H]2O[C@H](CO)[C@@H](O)[C@H](O)[C@H]2O[C@H]2C[C@](C)(N)[C@H](O)[C@H](C)O2)Oc2ccc(cc2Cl)[C@H]1O	MIC	2 µg/mL
CCC[C@@H]1C[C@@H](C(=O)N[C@@H]([C@H]2O[C@H](SC)[C@H](O)[C@@H](O)[C@H]2O)[C@H](C)Cl)N(C)C1 [Clindamycin, clindamycin, reference compound]	MIC	> 128 µg/mL
CO/N=C(\C(=O)N[C@@H]1C(=O)N2C(C(=O)O)=C(CSc3nc(=O)c(=O)[nH]n3C)CS[C@H]12)c1csc(N)n1	MIC	> 128 µg/mL
